Test system: TSSK1B;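 also: KINOMEscan kinase panel screen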
Conditions: concentration: 1 μM, replicates: in singlicate; n = 1
Items are presented alongside their recorded %Inh.

| SMILES ENTRY | %Inh |
| --- | --- |
| C[C@@H]1CC[C@@H](C(=O)Nc2ccccc2)CN1c1cc(-c2ccc3c(N)n[nH]c3c2)nc(N)n1 | 0% |
| COc1cc(Nc2nccc(-c3c(-c4cccc(NC(=O)c5c(F)cccc5F)c4)nn4ncccc34)n2)cc(OC)c1OC | 11% |
| O=c1[nH]cc(-c2ccc(N3CCOCC3)cc2)c2sc(-c3cn[nH]c3)cc12 | 18% |
| COc1ccc(Nc2nccc(NCCNC(=O)c3cc4ccccc4s3)n2)cc1 | 0% |
| CN(C)Cc1ccc(-c2ccc3c(Nc4ccc(Oc5ccccn5)cc4)ccnc3c2)o1 | 0% |
| Nc1ncnc2c1nc(-c1ccccc1)n2-c1ccccc1 | 2% |
| c1ccc(Oc2ccc(Nc3ccnc4cc(-c5ccc(CNCCN6CCOCC6)o5)ccc34)cc2)nc1 | 0% |
| O=C(Nc1cccc(Oc2ccc3nc(NC(=O)C4CC4)cn3n2)c1)c1ccccc1C(F)(F)F | 7% |
| Clc1ccc(-c2nn3ncccc3c2-c2ccnc(Nc3ccc4c(c3)OCCO4)n2)cc1 | 0% |
| COCCOCCOc1cc2ncc3c4ccc(C#N)cc4[nH]c3c2cc1OC | 0% |
| Cc1ccc(S(=O)(=O)Nc2ccc(Nc3nccc(Nc4cccc5[nH]ncc45)n3)cc2)cc1 | 4% |
| Cc1ccc(C(=O)Nc2ccc(Nc3ccnc4cc(-c5nccs5)ccc34)cc2O)cc1.Cl | 13% |
